Target: Insulin receptor (Homo sapiens, UniProt P06213)
Sequence (P06213 28-758 limits assumed): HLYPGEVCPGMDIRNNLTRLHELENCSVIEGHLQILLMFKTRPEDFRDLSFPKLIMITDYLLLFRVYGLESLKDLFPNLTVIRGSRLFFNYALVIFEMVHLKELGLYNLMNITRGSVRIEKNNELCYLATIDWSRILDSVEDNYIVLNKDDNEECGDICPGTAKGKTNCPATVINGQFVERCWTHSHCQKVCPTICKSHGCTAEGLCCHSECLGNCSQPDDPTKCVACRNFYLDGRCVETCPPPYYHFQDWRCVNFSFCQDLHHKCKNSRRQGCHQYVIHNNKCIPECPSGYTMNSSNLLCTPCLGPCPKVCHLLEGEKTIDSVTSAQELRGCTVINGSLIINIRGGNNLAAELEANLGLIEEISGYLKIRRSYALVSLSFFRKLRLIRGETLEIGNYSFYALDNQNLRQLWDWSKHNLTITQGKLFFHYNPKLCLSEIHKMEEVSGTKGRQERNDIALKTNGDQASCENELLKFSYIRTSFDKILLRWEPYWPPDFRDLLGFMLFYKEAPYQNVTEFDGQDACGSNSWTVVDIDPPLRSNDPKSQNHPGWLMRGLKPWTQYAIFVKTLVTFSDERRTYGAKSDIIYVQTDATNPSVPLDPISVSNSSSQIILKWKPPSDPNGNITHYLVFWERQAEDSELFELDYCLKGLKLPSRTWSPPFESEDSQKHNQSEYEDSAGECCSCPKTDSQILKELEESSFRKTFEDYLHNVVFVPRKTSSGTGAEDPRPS
Sequence (P06213 763-1382 limits assumed): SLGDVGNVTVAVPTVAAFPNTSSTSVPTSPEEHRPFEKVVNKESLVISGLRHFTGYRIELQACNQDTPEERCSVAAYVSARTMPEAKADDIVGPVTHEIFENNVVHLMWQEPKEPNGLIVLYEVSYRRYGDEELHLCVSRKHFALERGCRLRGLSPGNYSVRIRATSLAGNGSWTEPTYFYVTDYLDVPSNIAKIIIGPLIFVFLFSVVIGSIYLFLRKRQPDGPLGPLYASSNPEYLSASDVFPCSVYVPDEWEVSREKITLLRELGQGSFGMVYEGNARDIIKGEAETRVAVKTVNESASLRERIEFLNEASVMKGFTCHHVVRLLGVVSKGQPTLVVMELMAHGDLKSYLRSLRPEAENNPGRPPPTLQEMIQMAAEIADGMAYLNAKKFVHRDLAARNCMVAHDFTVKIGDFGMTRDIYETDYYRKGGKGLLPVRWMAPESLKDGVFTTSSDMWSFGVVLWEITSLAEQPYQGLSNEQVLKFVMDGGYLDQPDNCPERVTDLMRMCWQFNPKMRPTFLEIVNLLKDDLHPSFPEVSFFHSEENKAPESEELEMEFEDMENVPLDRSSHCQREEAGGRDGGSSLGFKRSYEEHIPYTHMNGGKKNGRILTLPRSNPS
Assay: Inhibition of INSR (unknown origin)
Details: read-out: pIC50 (converted)
reported endpoint: IC50 (µM)
Numeric answer only, unit µM assumed.

Below, 3 compounds whose answers are already recorded.
Cc1ccc(OCCN2CCOCC2)cc1-c1cc2c(-c3ccc(C(N)=O)cc3)ccnc2[nH]1
3.98
Cc1cc(OCCN2CCOCC2)ccc1-c1cc2c(-c3ccc(C(N)=O)cc3)ccnc2[nH]1
1.26
Cc1cc(CN2CCOCC2)ccc1-c1cc2c(-c3ccc(C(N)=O)cc3)ccnc2[nH]1
3.98

Query: Can you share its IC50? I mean this compound: `Cc1cc(OCCN2CCOCC2)ccc1-c1cc2c(-c3ccc(C(N)=O)c(C(C)C)c3)ccnc2[nH]1`
Result: 0.398

Query: Look up IC50 for this compound: `CS(=O)(=O)Nc1ccc(-c2cc3c(-c4ccc(C(N)=O)cc4)ccnc3[nH]2)cc1`
Result: 0.316

---

Biological target: Calcium/calmodulin-dependent protein kinase kinase 2 (Mus musculus, UniProt Q8C078)
Sequence (Q8C078 whole entry): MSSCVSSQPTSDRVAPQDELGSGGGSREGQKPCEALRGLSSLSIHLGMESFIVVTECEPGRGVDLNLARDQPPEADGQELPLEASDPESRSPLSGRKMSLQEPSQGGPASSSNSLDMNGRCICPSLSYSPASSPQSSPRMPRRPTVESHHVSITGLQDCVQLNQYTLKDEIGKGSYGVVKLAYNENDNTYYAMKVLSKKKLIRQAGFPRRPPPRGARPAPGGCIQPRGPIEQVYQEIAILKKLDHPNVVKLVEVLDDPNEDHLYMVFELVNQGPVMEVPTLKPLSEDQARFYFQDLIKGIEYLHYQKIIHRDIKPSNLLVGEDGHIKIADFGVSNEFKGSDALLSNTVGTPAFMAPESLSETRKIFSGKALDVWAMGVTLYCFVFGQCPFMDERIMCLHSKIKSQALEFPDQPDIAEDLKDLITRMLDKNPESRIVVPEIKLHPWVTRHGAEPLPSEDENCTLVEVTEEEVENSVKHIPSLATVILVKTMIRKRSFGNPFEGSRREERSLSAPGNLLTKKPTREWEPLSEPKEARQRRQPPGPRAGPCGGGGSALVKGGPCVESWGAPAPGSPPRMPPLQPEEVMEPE
Assay: Inhibition of CAMKK2 in mouse N39 cells assessed as decrease in AMPKalpha phosphorylation at T172 preincubated for 80 mins followed by […] addition by ELISA
reported endpoint: pIC50
Entry type: numeric. Quantity: pIC50, the -log10 of concentration in molar units.

Query: Enter reported pIC50 observed with Calcium/calmodulin-dependent protein kinase kinase 2 (Mus musculus, UniProt Q8C078) for `COc1ccccc1-c1cc2c(-c3ccc(C(N)=O)c(C4CCCC4)c3)ccnc2[nH]1`
Result: 7.00

Query: Can you look up pIC50 on Calcium/calmodulin-dependent protein kinase kinase 2 (Mus musculus, UniProt Q8C078) for `Cc1ccc(-c2ccccc2)cc1Nc1nccc(-c2ccc(C(N)=O)cc2)n1` ?
Result: 5.40

Query: What reported pIC50 corresponds to `CN(C)Cc1ccc(-c2cc3c(-c4ccc(C(N)=O)cc4)ccnc3[nH]2)cc1` on Calcium/calmodulin-dependent protein kinase kinase 2 (Mus musculus, UniProt Q8C078)?
Result: 6.80

Query: Give Calcium/calmodulin-dependent protein kinase kinase 2 (Mus musculus, UniProt Q8C078) pIC50 for `COc1ccccc1Nc1ncc(F)c(-c2ccc(C(=O)O)c(C(C)C)c2)n1`
Result: 6.40

Query: Enter reported pIC50 observed with Calcium/calmodulin-dependent protein kinase kinase 2 (Mus musculus, UniProt Q8C078) for `Cc1cc(OCCN2CCOCC2)ccc1-c1cc2c(-c3ccc(C#N)c(C(C)C)c3)ccnc2[nH]1`
Result: 6.30

Query: Missing value: pIC50, Calcium/calmodulin-dependent protein kinase kinase 2 (Mus musculus, UniProt Q8C078), entry `N#Cc1ccc2c(-c3ccc(C(=O)O)c(C4CCCC4)c3)c[nH]c2n1` . Fill in?
Result: 5.20

---

Target: Aurora kinase A (Homo sapiens)
Sequence (O14965 whole entry): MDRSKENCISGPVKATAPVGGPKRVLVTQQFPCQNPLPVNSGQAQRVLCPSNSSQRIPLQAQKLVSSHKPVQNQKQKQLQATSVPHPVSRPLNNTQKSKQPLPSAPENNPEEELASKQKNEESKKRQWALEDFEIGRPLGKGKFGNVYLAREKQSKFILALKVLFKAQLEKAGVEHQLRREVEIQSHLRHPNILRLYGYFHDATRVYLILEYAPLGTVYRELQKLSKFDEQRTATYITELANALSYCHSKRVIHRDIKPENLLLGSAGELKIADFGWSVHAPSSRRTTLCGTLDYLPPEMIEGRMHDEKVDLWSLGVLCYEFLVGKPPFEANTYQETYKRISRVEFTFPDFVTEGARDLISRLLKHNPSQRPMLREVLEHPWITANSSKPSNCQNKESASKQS
Measured IC50 of individual entries

Cc1cc(OCCN2CCOCC2)ccc1-c1cc2c(-c3ccc(C#N)c(C(C)C)c3)ccnc2[nH]1
> 10 µM
Cc1cc(OCCN2CCOCC2)ccc1-c1cc2c(-c3ccc(C#N)cc3)ccnc2[nH]1
> 10 µM

Attention now turns to another entry.
Query: # IC50 lookup, item `Cc1ccc(CN2CCOCC2)cc1-c1cc2c(-c3ccc(C#N)c(C(C)C)c3)ccnc2[nH]1`
Result: > 10 µM
